assay: CREB reporter modulators without forskolin, primary screen, cell-based, PC12, CRE-LacZ reporter, unstimulated (AID 1145); settings: no forskolin, luminescence, 4.5 h, higher = more signal, called active from +8 up or from −8 down
Binary call on z-score: Criterion met from 0.02 upward, Criterion not met beneath that.

Worked examples follow.
{"Compound": "C[C@H]1CC[C@H]2C(=O)O[C@H](COc3ccc(C(C)(C)C)cc3)CN2[C@@H]1c1ccc(Br)cc1", "Label Value": "Criterion met"}
{"Compound": "CCN1C(=O)[C@@H]2[C@H]3C(=CC[C@@H]2C1=O)C1(OCCCO1)[C@H]1O[C@H]1[C@H]3O", "Label Value": "Criterion met"}
{"Compound": "CC(C)CON=C1C[C@@H](O)[C@@H](O)[C@@H]2[C@@H]3C(=O)N(C4CCCCC4)C(=O)[C@@H]3CC[C@H]12", "Label Value": "Criterion met"}
{"Compound": "COc1ccc(O[C@H]2C=C[C@@H](c3ccccc3)O[C@@H]2COC(=O)CCC(C)=NOC(C)CN2CCCc3nc(C)c(C)cc32)cc1 (stereo not given in full)", "Label Value": "Criterion met"}
{"Compound": "Cc1ccc(S(=O)(=O)NC(CCc2ccccc2)CC(=O)C(C)(C)C)cc1 (stereo not given)", "Label Value": "Criterion met"}
{"Compound": "CCOC(=O)[C@H](Cc1ccccc1)NC(=O)CCC1CC(OC(=O)NCc2cccc3ccccc23)CC2(CCCC(COC(=O)NCc3ccccc3)O2)O1 (stereo not given in full)", "Label Value": "Criterion not met"}
{"Compound": "CC(C)CON=C1[C@H]2CCn3c(=O)n(Cc4cc5c(cc4Cl)OCO5)c(=O)n3[C@H]2[C@H](O)[C@@H]2O[C@H]12", "Label Value": "Criterion met"}
{"Compound": "CCCCC#C[C@@H]1C=C[C@H](Oc2cc(OC)c(OC)c(OC)c2)[C@@H](COC(=O)OCC)O1", "Label Value": "Criterion met"}

Given the entry O=C(NN=C1C[C@@H](O)[C@@H](O)[C@@H]2[C@@H]3C(=O)N(C[C@@H]4CCCO4)C(=O)[C@@H]3CC[C@@H]12)OCc1ccccc1 , answer whether its z-score meets or surpasses 0.02.
Criterion met

Can you check CCOC(=O)[C@H](Cc1ccccc1)NC(=O)CCC1CC(OC(=O)NCCc2ccc(F)cc2)CC2(CCCC(COC(=O)NCCCN3CCCC3=O)O2)O1 (stereo not given in full) next?
Criterion not met

Then C[C@@H](c1ccccc1)N1C(=O)[C@H]2[C@H]3[C@H](O)[C@H](O)CC(=NO[C@@H]4O[C@H](CO)[C@@H](O)[C@H](O)[C@H]4O)[C@H]3CC[C@H]2C1=O ?
Criterion not met

How about this compound: CON=C(C)CCC(=O)OC[C@H]1O[C@H](c2ccccc2)C=C[C@@H]1Oc1ccc(OC)cc1
Criterion met

Also need CO[C@@H]1COC(=O)[C@H](CCSC)NC(=O)CC=C[C@@H](C)COC(=O)CCC[C@H]1C , thanks.
Criterion met

Another: C=CC[C@@H]1C=C[C@H](ON=C(C)CCC(=O)OC[C@H]2O[C@H](c3ccccc3)C=C[C@@H]2Oc2ccc(OC)cc2)[C@@H](CO)O1
Criterion not met

And COC(=O)CC=C[C@@H](C)[C@@H]1C=C[C@H](O)[C@@H](CO)O1 ?
Criterion met

Please answer likewise for COC(=O)[C@@H]1CC[C@H](C)[C@@H](c2ccc(C)cc2)N1C(=O)c1ccc(C=NO[C@@H](C)c2cn([C@H](CO)Cc3ccccc3)nn2)cc1
Criterion met
